- TARGET_DESC: Human Neutrophil Elastase (HNE) (Homo sapiens, UniProt P08246)
- Construct: Human Neutrophil Elastase (HNE) purified from serum; not recombinant
- Sequence (P08246 30-267): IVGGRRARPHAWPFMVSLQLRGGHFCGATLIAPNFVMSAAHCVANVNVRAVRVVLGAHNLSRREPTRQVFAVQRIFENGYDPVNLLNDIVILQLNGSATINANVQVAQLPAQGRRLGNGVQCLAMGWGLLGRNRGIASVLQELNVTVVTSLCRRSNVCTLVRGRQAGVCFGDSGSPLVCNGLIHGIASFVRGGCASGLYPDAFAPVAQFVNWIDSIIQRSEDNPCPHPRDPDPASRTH
- TEST_PROTOCOL: Human Neutrophil Elastase Quenched-FRET Assay
- MEASUREMENT_CONDITIONS: read-out: Inhibition of Human Neutrophil Elastase IC50
Each entry below lists one item and its recorded IC50 value.

Bench note: what IC50 did COc1cccc(CNC(=O)c2ccc(C)n(-c3cccc(C(F)(F)F)c3)c2=O)c1OC show?
701 nM

Which measured IC50 value corresponds to COc1ccc(CNC(=O)c2ccc(C)n(-c3cccc(Br)c3)c2=O)cc1 ?
353 nM

Quick check: IC50 of O=C(NCc1ccc2c(c1)CCO2)c1c[nH]c(=O)n(-c2cccc(C(F)(F)F)c2)c1=O ?
2030 nM

Entry Cc1cc(CNC(=O)c2ccc(C)n(-c3cccc(C(F)(F)F)c3)c2=O)no1 has what IC50?
318 nM
